Source of measurements: the supplement of paper PMC10065799

Biological target: FGFR1 (UniProt P11362)
Sequence (P11362 whole entry, looked up): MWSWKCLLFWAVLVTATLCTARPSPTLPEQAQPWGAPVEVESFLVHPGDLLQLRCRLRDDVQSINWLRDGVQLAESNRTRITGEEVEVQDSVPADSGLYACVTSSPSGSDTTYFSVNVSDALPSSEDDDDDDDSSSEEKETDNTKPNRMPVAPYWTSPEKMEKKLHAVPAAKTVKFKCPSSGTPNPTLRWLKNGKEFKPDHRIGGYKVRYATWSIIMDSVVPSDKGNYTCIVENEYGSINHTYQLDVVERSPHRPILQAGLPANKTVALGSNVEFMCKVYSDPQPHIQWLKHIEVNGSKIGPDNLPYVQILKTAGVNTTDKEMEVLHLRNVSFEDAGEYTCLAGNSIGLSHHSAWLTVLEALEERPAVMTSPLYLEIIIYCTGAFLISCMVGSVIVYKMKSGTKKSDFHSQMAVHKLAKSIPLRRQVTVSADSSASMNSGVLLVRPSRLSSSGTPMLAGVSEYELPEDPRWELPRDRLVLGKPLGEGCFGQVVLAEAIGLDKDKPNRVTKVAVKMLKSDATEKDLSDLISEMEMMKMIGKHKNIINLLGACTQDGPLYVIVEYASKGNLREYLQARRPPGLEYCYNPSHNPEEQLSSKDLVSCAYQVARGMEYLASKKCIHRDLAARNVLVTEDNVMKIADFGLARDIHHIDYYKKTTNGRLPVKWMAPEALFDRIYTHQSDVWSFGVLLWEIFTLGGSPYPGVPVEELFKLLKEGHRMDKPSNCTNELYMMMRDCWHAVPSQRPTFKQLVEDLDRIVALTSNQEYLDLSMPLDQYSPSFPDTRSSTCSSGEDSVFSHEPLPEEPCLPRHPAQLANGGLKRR
Test: phosphorylation enrichment, bacterial display (enrichment ratio); higher = better substrate or ligand; peptides without Tyr show the background;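 also: 11-residue human phosphosite peptides and single-mutation variants displayed on the E. coli surface, counted by deep sequencing, each peptide's frequency after selection divided by its frequency in the unselected input library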;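 also: frequency after pTyr selection over input frequency; kinase dosed for 20-30% of maximal phosphorylation in three min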
Decide by phosphorylation enrichment: equal to or exceeding 0.6 means Satisfied, less means Not satisfied.

Please check the record LIDGFYRLTAD [JAK2_Y373_YF] and state if its phosphorylation enrichment is at or above 0.6.
Satisfied

Please check the record GRLPEYNTRIA [CCDC151_Y542] and state if its phosphorylation enrichment is at or above 0.6.
Not satisfied

Please check the record LGQRIYQYIQS [DYRK1B_Y271] and state if its phosphorylation enrichment is at or above 0.6.
Satisfied

Please check the record EMTRNYIIFIE [BCO2_Y294_G289E] and state if its phosphorylation enrichment is at or above 0.6.
Not satisfied

Please check the record FLRTGYSVPFG [TGM1_Y370_YF] and state if its phosphorylation enrichment is at or above 0.6.
Not satisfied

Please check the record TTPFNYSFIFK [RAB14_Y8_A4T_YF] and state if its phosphorylation enrichment is at or above 0.6.
Satisfied

Please check the record SGPRRYTVAAL [TTR_Y125_I127V] and state if its phosphorylation enrichment is at or above 0.6.
Not satisfied

Please check the record DAANNYARGHY [TUBA3E_Y103_S101N] and state if its phosphorylation enrichment is at or above 0.6.
Not satisfied

Please check the record HYECKYVINAI [MAOA_Y268] and state if its phosphorylation enrichment is at or above 0.6.
Not satisfied

Please check the record NFATLYLKIYH [PDE6B_Y219] and state if its phosphorylation enrichment is at or above 0.6.
Not satisfied

Please check the record FAAAGYGSLEA [EPHA10_Y959] and state if its phosphorylation enrichment is at or above 0.6.
Not satisfied

Please check the record EHFSYYGMKAV [SLC15A2_Y61_R57H] and state if its phosphorylation enrichment is at or above 0.6.
Satisfied

Please check the record RFLRGYRQYAY [HLA-A_Y137_D140Y] and state if its phosphorylation enrichment is at or above 0.6.
Satisfied

Please check the record QNTADYYDLYG [PTPN11_Y62_G60A] and state if its phosphorylation enrichment is at or above 0.6.
Satisfied
